The measured values listed here are drawn from paper PMC9482650.

Molecular target: T1, PDZD2_2, O15018
T1 sequence (O15018 329-429, limits assumed, looked up): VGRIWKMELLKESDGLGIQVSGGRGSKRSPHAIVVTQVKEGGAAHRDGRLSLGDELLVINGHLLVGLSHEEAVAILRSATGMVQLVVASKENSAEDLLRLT
Test: holdup assay
Parameters: key: below the threshold = too weak to quantify, mostly under pKd 3.1 to 4
Conditions: plain residues with an end cap or a label only (N-terminal biotin on a linker: ado-ado)
Endpoint label: pKd
Give bare numbers.

binder="DAAHHDESNC [FMNL3, Q8IVF7]" value_measured=4.13
binder="DFKHTKSFII [JAM2, P57087]" value_measured=3.87

Batch lookup, pKd per entry.
1. VCMGDHWFDV [PRKN, O60260]
2. EPAKETTTNV [SLC2A3, P11169]
3. PEKVSNTTVV [IGSF5, Q9NSI5]
4. ATKDKKITTV [EXOC4, Q96A65]
5. PALKNGQYWV [CSPG4, Q6UVK1]
6. PGKKPEDSRV [SLCO2B1, O94956]

Result:
[4.57, 4.97, 4.06, 3.88, 5.45, 4.45]

Fill in pKd for each of the 7 binders listed.
1. STYCDYTIEI [FAM71C, Q8NEG0]
2. DSEEELPTRL [GRK6, P43250]
3. SSSVNVSSNL [CXCR1, P25024]
4. TKDKVQETQI [LRRC4, Q9HBW1]
5. GDSSRKEYFI [GYPC, P04921]
6. SGDGKTSVWI [GJC1, P36383]
7. NKSEPFLTWL [WWTR1, Q9GZV5]

Result:
[4.69, 3.71, 3.69, 4.23, 4.28, 5.57, 5.89]
